- targetSystem: human 17β-HSD3 (Homo sapiens)
- Construct: 293-EBNA cells stably transfected with 17β-HSD Type 3; expressed in transfected cells; host or cells: human 293-EBNA cells, stably transfected
- Sequence (P37058 1-310): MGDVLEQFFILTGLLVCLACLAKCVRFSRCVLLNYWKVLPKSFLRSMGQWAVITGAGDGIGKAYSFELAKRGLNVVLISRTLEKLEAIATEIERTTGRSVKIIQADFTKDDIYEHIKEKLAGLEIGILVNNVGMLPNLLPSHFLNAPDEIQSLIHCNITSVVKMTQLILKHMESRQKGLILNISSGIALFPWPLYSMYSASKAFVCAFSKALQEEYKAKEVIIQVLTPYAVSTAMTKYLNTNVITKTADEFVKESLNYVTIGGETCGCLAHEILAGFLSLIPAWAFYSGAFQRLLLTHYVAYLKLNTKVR
- experimentalDetails: 17β-Hydroxysteroid dehydrogenase Type 3 activity in stably transfected 293-EBNA cells (TLC assay, 3H-androstenedione to testosterone)
- Format: cell-based
- conditionsUsed: human 293-EBNA cells stably transfected with 17β-HSD Type 3, mean of at least 2 measurements, typically SD ±5%
Quick reference: inhibition at 10 µM of the listed items.

Note inhibition at 10 µM for the compound shown: "CC(=O)N1CCC(C(=O)Nc2cccc(CNc3ccccc3Oc3ccc(Cl)cc3)c2)CC1"
> 60%

Note inhibition at 10 µM for the compound shown: "CC(=O)Nc1ccccc1CNc1cc(F)ccc1Oc1ccc(Cl)cc1"
> 60%

Note inhibition at 10 µM for the compound shown: "CC(=O)N1CCC(Nc2ccccc2CNc2ccccc2Oc2ccc(Cl)cc2)CC1"
20 to 60%

* * *

- targetSystem: human 17β-HSD3 (Homo sapiens)
- Construct: 293-EBNA cells stably transfected with 17β-HSD Type 3; expressed in transfected cells; host or cells: human 293-EBNA cells, stably transfected
- experimentalDetails: 17β-Hydroxysteroid dehydrogenase Type 3 activity in stably transfected 293-EBNA cells (TLC assay, 3H-androstenedione to testosterone)
- Type: cell-based
- conditionsUsed: human 293-EBNA cells stably transfected with 17β-HSD Type 3, mean of at least 2 measurements, typically SD ±5%
outcomeMeasure: inhibition at 10 µM

Known results for molecules:
1) C=CC[C@@H](Nc1ccccc1Oc1ccc(Cl)cc1)c1ccccc1NC(C)=O
20 to 60%
2) CC(=O)Nc1ccccc1C(Cc1ccccc1)Nc1ccccc1Oc1ccc(Cl)cc1 (centres unmarked)
< 20%
3) CC(=O)Nc1ccccc1C(=O)Nc1ccccc1Oc1ccc(Cl)cc1
< 20%

Determine reported inhibition at 10 µM for "CC(=O)Nc1ccc(C)cc1CNc1ccccc1Oc1ccc(Cl)cc1" ; test system: human 17β-HSD3 (Homo sapiens).
> 60%

Determine reported inhibition at 10 µM for "CC(=O)Nc1ccc(Cl)cc1CNc1ccccc1Oc1ccc(Cl)cc1" ; test system: human 17β-HSD3 (Homo sapiens).
> 60%

Determine reported inhibition at 10 µM for "CC(=O)N1CCC(C(=O)Nc2ccccc2CNc2ccccc2Oc2ccc(Cl)cc2)CC1" ; test system: human 17β-HSD3 (Homo sapiens).
> 60%

Determine reported inhibition at 10 µM for "CC(=O)Nc1cc2c(cc1CNc1ccccc1Oc1ccc(Cl)cc1)OCO2" ; test system: human 17β-HSD3 (Homo sapiens).
> 60%

Determine reported inhibition at 10 µM for "CC(=O)Nc1ccccc1CNc1ccccc1Oc1ccc(Cl)cc1" ; test system: human 17β-HSD3 (Homo sapiens).
> 60%

Determine reported inhibition at 10 µM for CCNc1ccccc1C(C)Nc1ccccc1Oc1ccc(Cl)cc1 (centres unmarked) ; test system: human 17β-HSD3 (Homo sapiens).
20 to 60%

Determine reported inhibition at 10 µM for "CC(=O)Nc1c(CNc2ccccc2Oc2ccc(Cl)cc2)ccc2ccccc12" ; test system: human 17β-HSD3 (Homo sapiens).
< 20%

Determine reported inhibition at 10 µM for "CC(=O)Nc1ccc(Cl)cc1CNc1ccccc1Oc1ccc(Cl)cc1Cl" ; test system: human 17β-HSD3 (Homo sapiens).
20 to 60%

* * *

- targetSystem: human 17β-HSD3 (Homo sapiens, UniProt P37058)
- Construct: 293-EBNA cells stably transfected with 17β-HSD Type 3; expressed in transfected cells; host or cells: human 293-EBNA cells, stably transfected
- experimentalDetails: 17β-Hydroxysteroid dehydrogenase Type 3 activity in stably transfected 293-EBNA cells (TLC assay, 3H-androstenedione to testosterone)
- Assay type: cell-based
- conditionsUsed: human 293-EBNA cells stably transfected with 17β-HSD Type 3, mean of at least 2 measurements, typically SD ±5%
Quick reference: inhibition at 10 µM of the listed items.

Note inhibition at 10 µM for the compound shown: "CC(=O)N1CCC(Nc2ccccc2CN(C(C)=O)c2ccccc2Oc2ccc(Cl)cc2)CC1"
20 to 60%

Note inhibition at 10 µM for the compound shown: "COc1cc(CNc2ccccc2Oc2ccc(Cl)cc2)c(NC(C)=O)cc1OC"
< 20%

Note inhibition at 10 µM for the compound shown: "O=C(Nc1ccccc1C(=O)Nc1ccccc1Oc1ccc(Cl)cc1)c1ccccc1"
< 20%

Note inhibition at 10 µM for the compound shown: CCN(C(C)=O)c1ccccc1C(C)Nc1ccccc1Oc1ccc(Cl)cc1 (stereo not shown)
> 60%

Note inhibition at 10 µM for the compound shown: "CC(=O)N(C)c1ccccc1CNc1ccccc1Oc1ccc(Cl)cc1"
> 60%

* * *

- targetSystem: human 17β-HSD3 (Homo sapiens)
- Construct: 293-EBNA cells stably transfected with 17β-HSD Type 3; expressed in transfected cells; host or cells: human 293-EBNA cells, stably transfected
- experimentalDetails: 17β-Hydroxysteroid dehydrogenase Type 3 activity in stably transfected 293-EBNA cells (TLC assay, 3H-androstenedione to testosterone)
- Assay type: cell-based
- conditionsUsed: human 293-EBNA cells stably transfected with 17β-HSD Type 3, mean of at least 2 measurements, typically SD ±5%
outcomeMeasure: inhibition at 10 µM

Known results for molecules:
1. CC(=O)Nc1cccc(CNc2ccccc2Oc2ccc(Cl)cc2)c1
20 to 60%
2. CC(=O)Nc1ccc(CNc2ccccc2Oc2ccc(Cl)cc2)cc1
20 to 60%
3. CC(=O)Nc1ccccc1CN(C(C)=O)c1ccccc1Oc1ccc(Cl)cc1
< 20%
4. CCCC(Nc1ccccc1Oc1ccc(Cl)cc1)c1ccccc1NC(C)=O (centres unmarked)
> 60%
5. CC(=O)Nc1ccccc1CNc1ccccc1Oc1ccc(OC(F)(F)F)cc1
> 60%
6. C=CCC(Nc1ccccc1Oc1ccc(Cl)cc1)c1ccccc1NC(C)=O (centres unmarked)
> 60%
7. CC(=O)Nc1ccccc1C(C)Nc1ccccc1Oc1ccc(Cl)cc1 (centres unmarked)
> 60%

Kindly consider the entry below.
Determine reported inhibition at 10 µM for "COc1cc(CNc2ccccc2Oc2ccc(Cl)cc2Cl)c(NC(C)=O)cc1OC" ; test system: human 17β-HSD3 (Homo sapiens).
< 20%

* * *

Quick reference: inhibition at 10 µM of the listed items.
- targetSystem: human 17β-HSD3 (Homo sapiens)
- Construct: 293-EBNA cells stably transfected with 17β-HSD Type 3; expressed in transfected cells; host or cells: human 293-EBNA cells, stably transfected
- experimentalDetails: 17β-Hydroxysteroid dehydrogenase Type 3 activity in stably transfected 293-EBNA cells (TLC assay, 3H-androstenedione to testosterone)
- Type: cell-based
- conditionsUsed: human 293-EBNA cells stably transfected with 17β-HSD Type 3, mean of at least 2 measurements, typically SD ±5%

Known results for compounds:
1. CC(=O)Nc1ccccc1CN(C)c1ccccc1Oc1ccc(Cl)cc1
< 20%
2. CC(=O)Nc1ccc(Cl)cc1CNc1ccccc1Oc1ccc(OC(F)(F)F)cc1
> 60%
3. C=CC[C@H](Nc1ccccc1Oc1ccc(Cl)cc1)c1ccccc1NC(C)=O
> 60%

Note inhibition at 10 µM for the compound shown: "CC(=O)Nc1ccc(CNc2ccccc2Oc2ccc(Cl)cc2Cl)cc1"
< 20%

Note inhibition at 10 µM for the compound shown: "CC(=O)N(C)c1ccccc1CN(C)c1ccccc1Oc1ccc(Cl)cc1"
20 to 60%
